System: Bel-7402
measurement_protocol: Antiproliferative activity against human Bel-7402 cells assessed as reduction in cell viability at 1 uM incubated for 72 hrs by MTT assay relative to control
Format: functional
readout_name: inhibition at 1 µM (%)
Supply the numeric figure in %, leaving out any unit text.

Asked: # lookup: inhibition at 1 µM of `C=C1C(=O)[C@]23[C@H](OC(=O)CCC(=O)OCO/N=[N+](\[O-])N4CCOCC4)[C@H]1CC[C@H]2[C@@]12CO[C@@]3(O)[C@@H](O)[C@@H]1C(C)(C)CC[C@@H]2OC(C)=O`
Given back: 85.8

Asked: Check `C=C1C(=O)[C@]23[C@H](OC(=O)CCCC(=O)OCO/N=[N+](\[O-])N4CCOCC4)[C@H]1CC[C@H]2[C@@]12CO[C@@]3(O)[C@@H](O)[C@@H]1C(C)(C)CCC2=O` too.
Given back: 87.8

Asked: Check C=C1C(=O)[C@]23[C@H](O)[C@H]1CC[C@H]2[C@@]12CO[C@]3(O)[C@@H](O)[C@@H]1C(C)(C)CC[C@@H]2O [ORIDONIN] too.
Given back: 29.9

Asked: Check `C=C1C(=O)[C@]23[C@H](OC(=O)CCCC(=O)OCO/N=[N+](\[O-])N4CCCC4)[C@H]1CC[C@H]2[C@@]12CO[C@@]3(O)[C@@H](O)[C@@H]1C(C)(C)CCC2=O` too.
Given back: 13.5

Asked: Check `C=C1C(=O)[C@]23[C@H](OC(=O)CCCC(=O)OCO/N=[N+](\[O-])N4CCOCC4)[C@H]1CC[C@H]2[C@@]12CO[C@@]3(O)[C@@H](O)[C@@H]1C(C)(C)CC[C@@H]2O` too.
Given back: 83.8
